Source: patent US10457703B2

TARGET UNDER TEST: UniProtKB Q96RI1
Sequence (Q96RI1 whole entry, the tested form may be a part): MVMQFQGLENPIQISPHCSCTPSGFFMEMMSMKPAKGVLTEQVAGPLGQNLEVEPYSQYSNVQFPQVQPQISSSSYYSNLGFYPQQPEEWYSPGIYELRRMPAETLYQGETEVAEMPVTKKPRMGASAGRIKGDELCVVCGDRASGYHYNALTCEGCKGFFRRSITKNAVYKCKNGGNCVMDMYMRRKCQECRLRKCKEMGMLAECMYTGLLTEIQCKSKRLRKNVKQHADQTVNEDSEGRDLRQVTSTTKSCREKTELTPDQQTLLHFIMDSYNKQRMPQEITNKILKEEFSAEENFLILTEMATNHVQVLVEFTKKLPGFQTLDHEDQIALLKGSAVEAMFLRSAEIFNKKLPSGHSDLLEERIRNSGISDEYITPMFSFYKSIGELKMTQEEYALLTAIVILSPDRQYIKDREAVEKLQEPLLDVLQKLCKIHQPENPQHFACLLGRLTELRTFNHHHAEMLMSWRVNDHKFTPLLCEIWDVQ
ASSAY OVERVIEW: Human FXR (NR1H4) Assay (Gal4 promoter driven luciferase reporter, Indigo Bioscience kit);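 note: 100% equals the efficacy of CDCA; efficacy normalized to CDCA set as 100%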
Assay type: cell-based
CONDITIONS USED: read-out: Efficacy (%)
Items are presented alongside their recorded Emax.

| SMILES TEXT | TARGET UNDER TEST | Emax, % |
| --- | --- | --- |
| CC[C@H]1[C@@H](O)[C@@H]2[C@H](CC[C@]3(C)[C@@H]([C@H](C)CCOC(=O)NS(=O)(=O)c4ccc(F)c(F)c4)CC[C@@H]23)[C@@]2(C)CC[C@@H](O)C[C@@H]12 | UniProtKB Q96RI1 | 235 |
| CCOC(=O)CNC(=O)OCC[C@@H](C)[C@H]1CC[C@H]2[C@@H]3[C@H](O)[C@H](CC)[C@@H]4C[C@H](O)CC[C@]4(C)[C@H]3CC[C@]12C | UniProtKB Q96RI1 | 193 |
| CC[C@H]1[C@@H](O)[C@@H]2[C@H](CC[C@]3(C)[C@@H]([C@H](C)CCOC(=O)NS(=O)(=O)c4ccccc4)CC[C@@H]23)[C@@]2(C)CC[C@@H](O)C[C@@H]12 | UniProtKB Q96RI1 | 309 |
| CC[C@H]1[C@@H](O)[C@@H]2[C@H](CC[C@]3(C)[C@@H]([C@H](C)CCOC(=O)N4CCC(CO)(CCl)CC4)CC[C@@H]23)[C@@]2(C)CC[C@@H](O)C[C@@H]12 | UniProtKB Q96RI1 | 451 |
| CCC(CC)S(=O)(=O)NC(=O)OCC[C@@H](C)[C@H]1CC[C@H]2[C@@H]3[C@H](O)[C@H](CC)[C@@H]4C[C@H](O)CC[C@]4(C)[C@H]3CC[C@]12C | UniProtKB Q96RI1 | 388 |
| CC[C@H]1[C@@H](O)[C@@H]2[C@H](CC[C@]3(C)[C@@H]([C@H](C)CCOC(=O)NS(=O)(=O)CCc4cccc(Cl)c4)CC[C@@H]23)[C@@]2(C)CC[C@@H](O)C[C@@H]12 | UniProtKB Q96RI1 | 313 |
| CC[C@H]1[C@@H](O)[C@@H]2[C@H](CC[C@]3(C)[C@@H]([C@H](C)CCOC(=O)NS(=O)(=O)c4cccc(C(F)(F)F)c4)CC[C@@H]23)[C@@]2(C)CC[C@@H](O)C[C@@H]12 | UniProtKB Q96RI1 | 365 |
| CC[C@H]1[C@@H](O)[C@@H]2[C@H](CC[C@]3(C)[C@@H]([C@H](C)COC(=O)NS(=O)(=O)c4ccc(N5CCOCC5)cc4)CC[C@@H]23)[C@@]2(C)CC[C@@H](O)C[C@@H]12 | UniProtKB Q96RI1 | 219 |
| CC[C@H]1[C@@H](O)[C@@H]2[C@H](CC[C@]3(C)[C@@H]([C@H](C)CCOC(=O)NS(=O)(=O)c4cccc(OC)c4)CC[C@@H]23)[C@@]2(C)CC[C@@H](O)C[C@@H]12 | UniProtKB Q96RI1 | 288 |
